# System: K. pneumoniae GN_106, PmxR
# condition info: GN 106, PmxR
Positions of bridges follow the written chain, without caps; N, C: chain ends. Non-standard residues stand in square brackets, D forms with d. Residues, ends and D or L forms follow the SMILES beside them. ξ: configuration not given here. *: point of attachment. Decanoyl(3R-OH) = CCCCCCC[C@@H](O)CC(=O)*; Decanoyl(3ξ-OH) = CCCCCCCC(O)CC(=O)*; dDab = NCC[C@@H](N)C(=O)O; Dab = NCC[C@H](N)C(=O)O

{"compound": "CCCCCCCC(O)CC(=O)N[C@H](CCN)C(=O)N[C@H]1CCNC(=O)[C@H](CC(C)C)NC(=O)[C@H](CCN)NC(=O)[C@H](CCN)NC(=O)[C@H](CC(C)C)NC(=O)[C@@H](Cc2ccccc2)NC(=O)[C@H](CCN)NC1=O (some centres unmarked) [compound 5013] ({Decanoyl(3ξ-OH)}-[dDab][Dab][Dab][dF]L[Dab][Dab]L; lactam 2-C)", "MIC K. pneumoniae GN_106, PmxR, mg/L": 16}
{"compound": "CCCCCCC[C@@H](O)CC(=O)N[C@H](Cc1c[nH]c2ccccc12)C(=O)N[C@H]1CCNC(=O)[C@H](CC(C)C)NC(=O)[C@H](CCN)NC(=O)[C@H](CCN)NC(=O)[C@H](Cc2ccccc2)NC(=O)[C@@H](CC(C)C)NC(=O)[C@H](CCN)NC1=O [compound 6426] ({Decanoyl(3R-OH)}-[dW][Dab][Dab][dL]F[Dab][Dab]L; lactam 2-C)", "MIC K. pneumoniae GN_106, PmxR, mg/L": 4}
